B1: Far upstream element-binding protein 1, residues 98 to 169; numbered along this chain, Q96AE4 (parent)
chain: RSVMTEEYKVPDGMVGFIIGRGGEQISRIQQESGCKIQIAPDSGGLPERSCMLTGTPESVQSAKRLLDQIVE

variants of: B1; experiment: abundance fitness (aPCA) (normalised: wild type 0, dead -1); higher = more abundant; growth selection in yeast, the domain comes from the species named; details: Homo sapiens
Quick rule for you: abundance fitness at -0.05 or higher means YES, lower means NO.

| VARIANT_IDENTIFIER | LABEL_VALUE |
| --- | --- |
| M4W | NO |
| G16R | YES |
| Q31S | YES |
| D68F | NO |
| G16D | YES |

INPUT: Decide: abundance fitness of I70Y >= -0.05?
OUTPUT: YES

INPUT: Decide: abundance fitness of E58S >= -0.05?
OUTPUT: YES

INPUT: Decide: abundance fitness of L66M >= -0.05?
OUTPUT: YES

INPUT: Decide: abundance fitness of S62H >= -0.05?
OUTPUT: YES

INPUT: Decide: abundance fitness of R49N >= -0.05?
OUTPUT: NO

INPUT: Decide: abundance fitness of I26T >= -0.05?
OUTPUT: NO

INPUT: Decide: abundance fitness of P41H >= -0.05?
OUTPUT: NO

INPUT: Decide: abundance fitness of P11I >= -0.05?
OUTPUT: NO

INPUT: Decide: abundance fitness of Q31N >= -0.05?
OUTPUT: YES

INPUT: Decide: abundance fitness of M14V >= -0.05?
OUTPUT: YES

INPUT: Decide: abundance fitness of G16K >= -0.05?
OUTPUT: YES

INPUT: Decide: abundance fitness of Q69L >= -0.05?
OUTPUT: NO

INPUT: Decide: abundance fitness of I29G >= -0.05?
OUTPUT: NO

INPUT: Decide: abundance fitness of I26P >= -0.05?
OUTPUT: NO

INPUT: Decide: abundance fitness of T56F >= -0.05?
OUTPUT: NO

INPUT: Decide: abundance fitness of E7W >= -0.05?
OUTPUT: NO

INPUT: Decide: abundance fitness of L66W >= -0.05?
OUTPUT: NO
